# experimental protocol: qHTS assay for small molecule disruptors of mitochondrial membrane potential screened against the NCATS CANVASS Library (AID 1347389); further: nearly all actives have a fitted effect of over 60% in size
# setup conditions: HepG2 mitochondrial membrane potential, m-MPI red/green ratio, 1.5 h; series mostly up to 46.1 µM
Inconclusive results are not listed. Calls of active or inactive are those of the source. The call rests on the fitted dose curve; in most records, active means well fitted inhibition curve with a large enough effect; inconclusive means small, poorly fitted or top-dose-only effect; inactive means flat fitted curve, though single readings scatter. Peptide text beside a SMILES is read from it. * marks the point of attachment. Hexanoyl = CCCCCC(=O)*
Outcomes: Y (active), N (inactive)

| molecule | category label |
| --- | --- |
| O=Cc1ccc2n1C[C@]1(C[C@H](O)[C@@H](CO)O1)OC2 | N |
| C=CC(C)(C)C(=O)[C@@H](C)[C@@H]1CC[C@@](C)(C=C)O1 | N |
| CC(=O)c1c(C)cc2c(c1O)C(=O)c1c(O)cc(O)cc1C2=O | N |
| CN1CC[C@@]23c4ccccc4N[C@@H]1[C@@]21CCN(C)[C@@H]3Nc2ccccc21 | N |
| CCCCCC(=O)N[C@@H](CC(C)C)C(=O)N[C@H](C=O)CCC(=O)O (Hexanoyl-Leu-Glu-aldehyde) | N |
| COc1cc(C2C3=C(Cc4cc5c(cc42)OCO5)C(=O)OC3)cc(OC)c1OC (stereo not drawn) | N |
| CC(C)C[C@@H]1c2c(O)c(C=O)c(O)c(C=O)c2O[C@]2(C)C=C[C@@H](C(C)C)C[C@H]12 | N |
| C=C1CCC2C(C)(C(=O)O)CCC(CC/C(C)=C/C(=O)NC(CCC(N)=O)C(=O)O)[C@@]2(C)C1 (stereo partly drawn) | N |
| O=c1cc(-c2ccc(O)cc2)oc2cc(O)c([C@@H]3OC(CO)[C@H](O)[C@@H](O)[C@H]3O)c(O)c12 (stereo partly drawn) | N |
| COc1cc2oc3ccccc3c(=O)c2cc1OC | N |
| CC(C)=CC[C@H]1C[C@@]2(CC=C(C)C)C(=O)[C@](CC=C(C)C)(C(=O)C(C(=O)c3ccccc3)=C2O)C1(C)C | Y |
| C=C1CC[C@@H](O[C@H]2C[C@@](O)([C@H](C)NC(=O)c3[nH]c(C)c(Cl)c3Cl)[C@H](O)[C@@H](C)O2)[C@@H]2C=C[C@H](C)C(/C(O)=C3/C(=O)[C@H](C(C)C)N([C@@H]4O[C@H](C)[C@H](OC(N)=O)[C@H](OC(C)=O)[C@@H]4OC)C3=O)[C@@H]12 (stereo partly drawn) | Y |
| CN1CC[C@]23c4ccccc4N[C@H]1[C@]21CCN(C)[C@H]3Nc2ccccc21 | N |
| C=C(C)CC[C@H](Cc1c(O)cc(O)c2c1O[C@H](c1ccc(O)cc1)CC2=O)C(=C)C | Y |
| COC(=O)C1=C[C@]23C[C@@H](C)CC[C@@H]2[C@@]2(C)CC[C@@H](C(C)C)[C@@](O)(O3)[C@@H]12 | N |
| C=C1C[C@]23C=CC(=O)[C@@](C)(CCCC(C)C(=O)N[C@@H](CO)C(=O)O)[C@@H]2C[C@@H]1CC3 (stereo partly drawn) | N |
| C[C@H]1CCC2(OC1)O[C@H]1C[C@H]3[C@@H]4CC(=O)[C@]5(O)C[C@H](O)CC[C@@]5(C)[C@H]4CC[C@@]3(C)[C@H]1[C@H]2C (stereo partly drawn) | N |
| CC(CCC[C@]1(C)C(=O)C=C[C@@]23C[C@]4(C)O[C@@H](C[C@@H]4[C@H]2O)C31)C(=O)O (stereo partly drawn) | N |

* * *

# target of assay: Calcium and integrin-binding protein 1 (Homo sapiens)
# experimental protocol: Primary qHTS for Identification of Calcium Integrin Binding Protein 1 (CIB1) Competitor (AID 1508620)
# setup conditions: CIB1-GST / FITC-alphaIIb peptide fluorescence polarization; series mostly up to 114 µM
# From the text: Assay Provider: Ulhas P. Naik, PhD Sidney Kimmel Medical College Thomas Jefferson University, Philadelphia, PA Primary function of platelets is to maintain hemostasis. At the site of vascular injury, platelets adhere to adhesive proteins such as collagen and von Willebrand factor. […] PROTOCOL TABLES SEQUENCE No. (1, 2, 3, etc.); […] […] 7; ViewLux Fluorescent Polization Read: excitation = 480(20) / emission = 540(25) S and P; FITC Dichroic mirror.
Records with an inconclusive call do not appear. Activity calls are given as the source filed them. The call rests on the fitted dose curve; in most records, active means well fitted inhibition curve with a large enough effect; inconclusive means small, poorly fitted or top-dose-only effect; inactive means flat fitted curve, though single readings scatter.
Outcomes: y (active), n (inactive)

| input smiles | category label |
| --- | --- |
| CC(C)(C)OC(=O)N1CCN(c2ccc(NCc3ccc(-c4ccc(C#N)cc4)o3)cn2)CC1 | n |
| O=C(CN1C(=O)N/C(=C\c2cccn2-c2cccc(C(=O)O)c2)C1=O)Nc1cccc(Cl)c1 | n |
| O=C1CCc2cc(S(=O)(=O)Nc3cccc(Cl)c3)ccc2N1 | n |
| COc1cccc(-c2ccc(=O)n(CC(=O)NCCc3ccccc3)n2)c1 | n |
| CC(C)N1CCc2c(sc(NC(=O)Cc3ccccc3)c2-c2nc3ccccc3s2)C1 | y |
| O=C1COc2cc([S+](=O)([O-])Nc3ccc(Cl)c(Cl)c3)c(Cl)cc2N1 | n |
| O=C(OCC#CCSc1nnc(-c2cccc(F)c2)o1)c1ccc(F)cc1 | n |
| Cc1cc2c(s1)c1c(C)nn(Cc3ccc(F)cc3)c(=O)c1n2C | n |
| CCOC(=O)C1CCN(C(=O)C(C)(C)NC(=O)Nc2ccc([N+](=O)[O-])cc2)CC1 | n |

* * *

# experimental protocol: qHTS Assay for Lipid Storage Modulators (AID 1519)
# setup conditions: Drosophila S3 cells, BODIPY lipid droplet/cell ratio, laser cytometry; measured here: lipid channel max response; cells loaded with oleic acid
Inconclusive results are not listed.

| input smiles | max response [%] |
| --- | --- |
| CC(=O)NCCNc1cc(-c2ccccc2C)ncn1 | 17.3 |
| Cc1noc(C)c1C(=O)N1CCC[C@@]2(CCN(c3ncccn3)C2)C1 | 6.75 |
| COCC(=O)N1CCC2(CC1)CN(c1ccccn1)C2 | 3.63 |
| CN(C)c1ccc(-c2cc(Nc3ccc(F)cc3)ncn2)cc1 | -0.85 |
| COc1ccccc1CN1CC[C@@]2(CCCN(S(C)(=O)=O)C2)C1 | 13.7 |
| O=c1cnc2cncnc2n1Cc1ccccc1Cl | -10.1 |
| COc1cccc(-c2cncnc2-n2ccnc2)c1 | 4.82 |
| Nc1nc(Nc2ccccc2)nc2c1ncn2[C@@H]1O[C@H](CO)[C@H](O)[C@H]1O | -24.2 |
| COc1ccc(-c2nc3cnc(N4CCNCC4)nc3n(-c3ccccc3)c2=O)cc1 | 4.43 |
| O=c1cnc2cnc(N3CCNCC3)nc2n1Cc1ccc(F)cc1 | 28.6 |
| CN(C)Cc1ccccc1-c1nccc(N(C)C)n1 | 7.89 |

* * *

# experimental protocol: AP1 Signaling Pathway (AID 357);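 further: ME-180 reporter cells stimulated with EGF at its EC50 level; on the % scale 0 is the no-effect control and ±100 the full control effect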
# setup conditions: ME-180 (cervical carcinoma) AP-1-bla reporter, EGF-induced, beta-lactamase ratio, 5 h; at 7.69 µM (top of the series) unless noted
Results filed as inconclusive are left out. Calls of active or inactive are those of the source. Calls come from the whole dose curve; as a rule, active = well fitted curve in either direction with a large enough effect (not every such curve was filed as active); inconclusive = small, poorly fitted or top-dose-only effect, or another doubt; inactive = flat fitted curve, though single readings scatter.
measurement label: activity change, negative = inhibition

| input smiles | measurement label | result |
| --- | --- | --- |
| O=C(c1csnn1)N1CCC2(CC1)CN(c1ccncc1)C2 | activity change, negative = inhibition | -12.4% (inactive) |
| O=c1cnc2cnc(N3CCOCC3)nc2n1CCc1ccccc1 | activity change, negative = inhibition | -4.12% (inactive) |
| Cn1c(=O)c(-c2cc(F)cc(F)c2)nc2cnc(N3CCOCC3)nc21 | activity change, negative = inhibition | -11% (inactive) |
| COCC(=O)N1CCC2(CCCN(C(=O)Nc3ccc(OC)cc3)C2)CC1 | activity change, negative = inhibition | -3.98% (inactive) |
| Cn1c(=O)c(-c2cccs2)nc2cnc(OCc3ccccc3)nc21 | activity change, negative = inhibition | 16% (inactive) |
| Cc1nc2cnc(N(C)C)nc2n(C2CC2)c1=O | activity change, negative = inhibition | -20% (inactive) |
| CC(=O)N1CCC[C@@]2(CCN(Cc3cc(C(F)(F)F)cc(C(F)(F)F)c3)C2)C1 | activity change, negative = inhibition | -5.47% (inactive) |
| O=c1cnc2cnc(N3CCNCC3)nc2n1Cc1ccc(F)cc1 | activity change, negative = inhibition | -15.8% (inactive) |
| Cc1noc(C)c1-c1nc(N2CCNCC2)c2ccccc2n1 | activity change, negative = inhibition | 18.5% (inactive) |
| CCNc1ncc2nc(C)c(=O)n(-c3ccc(OC)cc3)c2n1 | activity change, negative = inhibition | -29.8% (inactive) |
| N#Cc1ccccc1-c1nc(NCCN2CCOCC2)c2ccccc2n1 | activity change, negative = inhibition | 1.04% (inactive) |
| CN1CCN(c2ncncc2-c2ccccc2C(F)(F)F)CC1 | activity change, negative = inhibition | 1.62% (inactive) |
| COc1ccc(-c2nc3cnc(Oc4cccc(Cl)c4)nc3n(CCC#N)c2=O)cc1 | activity change, negative = inhibition | -19.7% (inactive) |
| CN1CCN(c2ncc3ncc(=O)n(CCC#N)c3n2)CC1 | activity change, negative = inhibition | -10.2% (inactive) |
| O=C(c1csnn1)N1CCC[C@@]2(CCN(c3ccccn3)C2)C1 | activity change, negative = inhibition | -10.6% (inactive) |
| COc1ccc(-c2nc3cnc(N4CCOCC4)nc3n(C3CC3)c2=O)cc1 | activity change, negative = inhibition | 3.24% (inactive) |
| CC(=O)N1CCC2(CCCN(c3ccccc3)C2)CC1 | activity change, negative = inhibition | -11.7% (inactive) |
| COCCn1c(=O)c(CCc2ccccc2)nc2cnc(OC)nc21 | activity change, negative = inhibition | -6.75% (inactive) |
| CNc1cc(-c2c(C)noc2C)ncn1 | activity change, negative = inhibition | 25.4% (inactive) |
| c1cncc(CNc2nc(-c3ccoc3)nc3ccccc23)c1 | activity change, negative = inhibition | 1.41% (inactive) |
| COC(=O)N1CCC[C@@]2(CCN(c3ccncc3)C2)C1 | activity change, negative = inhibition | -7.07% (inactive) |
| O=C(c1ccco1)N1CCC2(CC1)CCN(c1ccccc1)CC2 | activity change, negative = inhibition | 2.89% (inactive) |
| COCCn1c(=O)c(-c2ccccc2)nc2cnc(OC)nc21 | activity change, negative = inhibition | -2.69% (inactive) |
| COc1ccccc1-c1nccc(NC2CCNCC2)n1 | activity change, negative = inhibition | 3.56% (inactive) |
| CNc1oc(-c2cccs2)nc1C#N | activity change, negative = inhibition | 3.62% [at 17.2 µM] (inactive) |
| COc1ccc(-n2c(=O)c(-c3cccs3)nc3cnc(N(C)C)nc32)cc1 | activity change, negative = inhibition | -10.2% (inactive) |
| O=C(c1ccco1)N1CCC[C@@]2(CCN(Cc3ccccc3)C2)C1 | activity change, negative = inhibition | -5.26% (inactive) |
| CNc1cc(-c2ccccc2CN(C)C)ncn1 | activity change, negative = inhibition | 6.89% (inactive) |
| Cc1noc(C)c1C(=O)N1CCC2(CCCN(C(=O)NC(C)C)C2)CC1 | activity change, negative = inhibition | 10.5% (inactive) |
| COCC(=O)N1CCC2(CCCN(C(=O)Nc3cccc(F)c3)C2)CC1 | activity change, negative = inhibition | -4.55% (inactive) |
| O=c1c(-c2ccc(F)cc2)nc2cnc(Oc3cccc(Cl)c3)nc2n1C1CC1 | activity change, negative = inhibition | 25.5% (inactive) |
| CNc1nc(-c2ccc3c(c2)OCO3)nc2ccccc12 | activity change, negative = inhibition | 28.9% (inactive) |
| CNc1ncncc1-c1ccccc1OC | activity change, negative = inhibition | -10.6% (inactive) |
| NCCCCNS(=O)(=O)c1cccc2c(Cl)cccc12 | activity change, negative = inhibition | -2.83% [at 38 µM] (inactive) |
| O=c1c(-c2ccc(F)cc2)nc2cnc(Oc3ccccc3)nc2n1Cc1cccs1 | activity change, negative = inhibition | -11.6% (inactive) |
| COc1ccc(-n2c(=O)cnc3cnc(N4CCOCC4)nc32)cc1 | activity change, negative = inhibition | 4.95% (inactive) |

All figures here come from PubChem BioAssay (NCATS).
